# system: T1, human heparanase (Homo sapiens, UniProt Q9Y251)
# T1 sequence (Q9Y251 36-543): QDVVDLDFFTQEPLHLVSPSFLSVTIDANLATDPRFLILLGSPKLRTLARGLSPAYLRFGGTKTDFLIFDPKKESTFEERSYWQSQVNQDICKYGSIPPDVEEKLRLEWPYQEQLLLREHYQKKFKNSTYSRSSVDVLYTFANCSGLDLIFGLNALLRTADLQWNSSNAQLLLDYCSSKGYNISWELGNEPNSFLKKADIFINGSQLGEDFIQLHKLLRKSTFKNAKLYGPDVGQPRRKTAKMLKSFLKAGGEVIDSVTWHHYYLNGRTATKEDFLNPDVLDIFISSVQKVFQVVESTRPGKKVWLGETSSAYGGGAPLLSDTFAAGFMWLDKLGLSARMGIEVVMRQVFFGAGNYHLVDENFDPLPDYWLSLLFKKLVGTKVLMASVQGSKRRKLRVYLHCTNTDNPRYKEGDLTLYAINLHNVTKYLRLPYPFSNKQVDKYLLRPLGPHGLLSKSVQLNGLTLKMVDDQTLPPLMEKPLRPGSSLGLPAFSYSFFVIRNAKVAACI
# measurementDescription: Cross species capture ELISA, human heparanase
# Type: binding
observedProperty: Binding to heparanase Human (OD units)
All answers are understood in OD units, so give the number only.

>  <molecule>
16G1.1: human anti-heparanase monoclonal antibody, G4κ; VH SEQ ID NO 14, VL SEQ ID NO 16 (antibody, listed as Homo Sapiens, V domains shown) VH: QVQLVESGGGVVQPGRSLRLSCAASGFTFSSYGMHWVRQAPGKGLEWVAVIWYDGSNKYYADSVKGRFTISRDNSKNTLNLQMNSLRAEDTAVYYCGRDPGTYHYYYHGMDVWGQGTTVTVSS VL: YIVMTQSPLSLPVTPGEPASISCRSSQSLLHSNGYNFLDWYLQKPGQSPQLLIYLGSNRASGVPDRFSGSGSGTDFTLKINRVEAEDVGVYYCMQALQTPITFGQGTRLEIK

>  <Binding to heparanase Human / OD units>
1.84

$$$$

Briefly, Binding to heparanase Human measured for 15A11.1: fully human anti-heparanase monoclonal antibody, G2κ; VH SEQ ID NO 10, VL SEQ ID NO 12; ATCC PTA-9490 (antibody, listed as Homo Sapiens, V domains shown, fully human anti-heparanase monoclonal antibody, G2κ; ATCC PTA-9490) VH: QVQLVQSGAEVKKPGASVKVSCKVSGDTLTELSMHWVRQTPGKGLEWMGGFDPEDGETIYAQKFQGRVTMTGDTSTDTAYMELSSLRSEDTAVYYCATEGDYGDSEEYYYYYGMDVWGQGTTVTVSS VL: DIQMTQSPSSLSASVGDRVTITCRASQGISNYLAWYQQKPGKVPKLLIYAASTLQSGVPSRFSGSGSGTDFTLTISSLQPEDVATYYCQKYNRAPFTFGPGTKVDIK : 0.21

Reported Binding to heparanase Human ( 10E9.1: fully human anti-heparanase monoclonal antibody, G2κ; VH SEQ ID NO 2, VL SEQ ID NO 4; ATCC PTA-9489 (antibody, listed as Homo Sapiens, V domains shown, fully human anti-heparanase monoclonal antibody, G2κ; ATCC PTA-9489) VH: QVQLVQSGAEVKKPGASVKVSCKVSGYSLTELSIHWVRQAPGKGLEWMGGFDPEDGEIIFAQKFQGRVTLTEDISLDTAYMEVSSLRSEDTAVYYCATEGHDSGDYVGYYYYGLDVWGQGTTVTVSS VL: DIQMTQSPSSLSASVGDRVTITCRASQDIRNFLAWYQQKPGKLPKLLIYAASTLQSGVPSRFSGSGSGTDFTLTISSLQPEDVASYYCQSHNSVPFTFGPGTKVDIR ) = 0.63

Data provenance: patent US20100233154A1
